Origin of values: paper PMC11475482

experimentalTarget: mOGC (2‐oxoglutarate/malate carrier, SLC25A11) (Mus musculus)
Construct: 34 kDa monomer, dimer (~69 kDa) on SDS-PAGE (dimer possibly artefact); tag not mentioned
Sequence (Q9CR62 2-314): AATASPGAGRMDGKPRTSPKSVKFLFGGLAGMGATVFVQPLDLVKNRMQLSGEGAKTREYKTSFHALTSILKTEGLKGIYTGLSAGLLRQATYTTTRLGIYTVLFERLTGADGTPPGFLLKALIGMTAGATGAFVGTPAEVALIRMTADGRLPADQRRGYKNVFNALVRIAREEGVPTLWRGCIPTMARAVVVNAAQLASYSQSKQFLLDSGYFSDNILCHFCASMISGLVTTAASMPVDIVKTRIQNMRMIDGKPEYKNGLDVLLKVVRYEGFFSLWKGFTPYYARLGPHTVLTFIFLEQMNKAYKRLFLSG
assayName: planar lipid bilayer proton conductance
Exercise: for every item that follows, state its recorded pIC50.
// field semantics: pIC50 = negative decimal log of concentration (mol/L)

Form field, pIC50 with mOGC (2‐oxoglutarate/malate carrier, SLC25A11) (Mus musculus), item O=C(O)CC(C(=O)O)c1ccccc1 (stereo not drawn) [phenylsuccinate] : 3.00

Value (pIC50, mOGC (2‐oxoglutarate/malate carrier, SLC25A11) (Mus musculus)) for record O=C(O)C[C@H](O)C(=O)O [malate] = 4.00

// compound O=C(O)CCC(=O)C(=O)O [2‐oxoglutarate] , assay mOGC (2‐oxoglutarate/malate carrier, SLC25A11) (Mus musculus), pIC50 value: 4.22
